assay: Pharmacokinetics in rats after single iv, po or sc dose (plasma and brain); assay type: in vivo, Sprague-Dawley rats; details: male, Sprague-Dawley, rat, brain, sc, 1 mg/kg, rat brain, SC 1.0 mg eq./kg; read-out: AUC(0-∞)
result type: AUC(0-inf) (µM·h)
I only need the number, in µM·h, no unit after it.

// query AUC(0-inf) value for entry CC12CC3CC(C)(C1)CC(N)(C3)C2 [memantine]
53

* * *

assay: Pharmacokinetics in rats after single iv, po or sc dose (plasma and brain); type: in vivo, Sprague-Dawley rats; settings: male, Sprague-Dawley, rat, brain, iv, 1.22 mg/kg, rat brain, IV 1.22 mg eq./kg; read-out: Half-life (t½) (converted)
result type: half-life
# output: number + unit

// query half-life value for entry CC12CC3CC(C)(C1)CC(N)(C3)C2 [memantine]
2.28 h
